- tgt: F82I
- assay.explanation: SPR; 37 C
reported.property: Kd (pM)
I only need the number, in pM, no unit after it.

query: GET /values?readout=Kd&item= BMP9 (ligand) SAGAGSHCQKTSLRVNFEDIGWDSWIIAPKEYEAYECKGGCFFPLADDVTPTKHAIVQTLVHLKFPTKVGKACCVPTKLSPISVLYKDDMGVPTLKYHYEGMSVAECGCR
result: 275

query: GET /values?readout=Kd&item= BMP10 (ligand) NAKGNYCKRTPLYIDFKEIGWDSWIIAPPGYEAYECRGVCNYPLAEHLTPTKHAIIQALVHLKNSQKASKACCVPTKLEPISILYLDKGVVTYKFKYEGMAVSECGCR
result: 8

query: GET /values?readout=Kd&item= GDF11 (ligand) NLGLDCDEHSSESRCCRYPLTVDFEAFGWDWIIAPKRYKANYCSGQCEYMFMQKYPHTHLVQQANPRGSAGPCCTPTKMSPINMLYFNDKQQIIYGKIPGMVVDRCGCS
result: 10

query: GET /values?readout=Kd&item= Activin A (ligand) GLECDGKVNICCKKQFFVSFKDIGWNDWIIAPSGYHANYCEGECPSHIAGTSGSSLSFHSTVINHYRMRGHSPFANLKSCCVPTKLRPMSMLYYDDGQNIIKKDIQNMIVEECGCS
result: 78
